- Tested on: Gossypium hirsutum
- assay-protocol: Post-emergence phytotoxicity against Gossypium hirsutum (cotton) assessed as mortality at 6.3 g a.i/10 a applied 11 days after germination as foliar spray
- Assay type: organism-based
- measurement-conditions: in vivo, other, 264 h
quantity-name: Activity

smiles-structure | test-target | reported-result
CCOc1cccc(Sc2nc(OC)cc(OC)n2)c1C(=O)O | Gossypium hirsutum | Toxic
COc1cc(OC)nc(Oc2cccc(I)c2C(=O)O)n1 | Gossypium hirsutum | Toxic
COc1cc(OC)nc(Oc2cccc(Br)c2C(=O)O)n1 | Gossypium hirsutum | Toxic
COc1cc(OC)nc(Oc2cccc(C(F)(F)F)c2C(=O)O)n1 | Gossypium hirsutum | Toxic
COc1cc(OC)nc(Oc2cccc(Cl)c2C(=O)O)n1 | Gossypium hirsutum | Toxic
COc1cc(OC)nc(Oc2cccc(SC)c2C(=O)O)n1 | Gossypium hirsutum | Toxic
COc1cc(OC)nc(Oc2cccc(N)c2C(=O)O)n1 | Gossypium hirsutum | Toxic
COc1cc(OC)nc(Sc2cccc(F)c2C(=O)O)n1 | Gossypium hirsutum | Toxic

Returns the measured Activity for the input molecule. Input: COc1cc(OC)nc(Oc2cccc(OC(F)F)c2C(=O)O)n1
Toxic

Item under review: COc1cc(OC)nc(Sc2cccc(OC)c2C(=O)O)n1 . Reported Activity?
Non-toxic

GET /values?readout=Activity&item= COc1cc(OC)nc(Sc2cccc(C(C)=O)c2C(=O)O)n1
Non-toxic

Consider the molecule CCSc1cccc(Sc2nc(OC)cc(OC)n2)c1C(=O)O and give its measured Activity.
Non-toxic

* * *

- System: Digitaria sanguinalis
- assay-protocol: Post-emergence herbicidal activity against Digitaria sanguinalis (hairy crabgrass) assessed as growth inhibition at 25 g a.i/10 a applied 11 days after germination as foliar spray
- Type: functional, organism-based
Activity calls are given as the source filed them. The calls are words filed in the database; no cut-off is given here.
Choose one outcome from this list and give only that: active, inactive

smiles-structure | label-class
CCOCCOc1cccc(Oc2nc(OC)cc(OC)n2)c1C(=O)O | active
CCc1cccc(Oc2nc(OC)cc(OC)n2)c1C(=O)O | active
COc1cc(OC)nc(Oc2cccc(OC)c2C(=O)O)n1 | active
COc1cc(OC)nc(Oc2cccc(C(=O)c3ccccc3)c2C(=O)O)n1 | inactive
COc1cc(OC)nc(Oc2c(F)cccc2C(=O)O)n1 | inactive
COc1cc(OC)nc(Oc2cccc(C)c2C(=O)O)n1 | active
COc1cc(OC)nc(Oc2cccc(SC)c2C(=O)O)n1 | active
COc1cc(OC)nc(Oc2cccc([N+](=O)[O-])c2C(=O)O)n1 | inactive

Give the logged outcome of this assay for the following compound: CCSc1cccc(Oc2nc(OC)cc(OC)n2)c1C(=O)O
inactive

Test call for this compound, please: COc1cc(OC)nc(Oc2ccc(F)cc2C(=O)O)n1
inactive

Hi team, can someone confirm the assay call for COC(=O)c1cccc(Oc2nc(OC)cc(OC)n2)c1C(=O)O ?
active

What did the test return for COc1cc(OC)nc(Oc2ccc(Br)cc2C(=O)O)n1 ?
inactive

Hey, what did the test say about COc1cc(OC)nc(Oc2ccc(C)cc2C(=O)O)n1 ?
inactive

Please let me know the test result on file for COc1cc(OC)nc(Oc2cccc(I)c2C(=O)O)n1 .
active

Could you check what this test reported for COc1cc(OC)nc(Oc2ccc(C(F)(F)F)cc2C(=O)O)n1 ?
inactive

* * *

- System: Gossypium hirsutum
- assay-protocol: Pre-emergence phytotoxicity against Gossypium hirsutum (cotton) assessed as mortality per 10 acre
- Type: organism-based
- measurement-conditions: in vivo

smiles-structure | ED20
COc1cc(OC)nc(Oc2cccc(C)c2C(=O)O)n1 | Toxic
COc1cc(OC)nc(Oc2cccc(Br)c2C(=O)O)n1 | Toxic
COc1cc(OC)nc(Oc2cccc(Cl)c2C(=O)O)n1 | Toxic

* * *

- Tested on: Persicaria nodosa
- assay-protocol: Pre-emergence herbicidal activity against Persicaria nodosa assessed as growth inhibition at 25 g a.i/10 a
- Format: functional, organism-based
Active and inactive are the calls of the source. The calls are words filed in the database; no cut-off is given here.
The reply should be one of these categories: t for active, f for inactive

Example entries and their recorded answers appear below.
smiles-structure | label-class
COc1cc(OC)nc(Oc2cccc(Br)c2C(=O)O)n1 | t
COc1cc(OC)nc(Oc2cccc(C(F)(F)F)c2C(=O)O)n1 | t
COc1cc(OC)nc(Oc2cccc(OC)c2C(=O)O)n1 | t

Outcome logged for COc1cc(OC)nc(Oc2ccc(I)cc2C(=O)O)n1 in this assay:
f

For COc1cc(OC)nc(Oc2cccc([N+](=O)[O-])c2C(=O)O)n1 , which call appears in the assay record?
t

How did this test come out for CCCCOc1cccc(Oc2nc(OC)cc(OC)n2)c1C(=O)O ?
f

Per the assay record, what outcome was assigned to COc1cc(OC)nc(Oc2c(F)cccc2C(=O)O)n1 ?
t

Look up the recorded call for COc1cc(OC)nc(Oc2ccc(Cl)cc2C(=O)O)n1 in this test.
f

What is the recorded call for this compound in the test? COc1cc(OC)nc(Oc2cccc(C(=O)c3ccccc3)c2C(=O)O)n1
f

Hello, I am checking results. What call was entered for COc1cc(OC)nc(Oc2cc(N)ccc2C(=O)O)n1 ?
f

Record request — test call for CCOc1cccc(Oc2nc(OC)cc(OC)n2)c1C(=O)O
t

* * *

- Tested on: Gossypium hirsutum
- assay-protocol: Post-emergence phytotoxicity against Gossypium hirsutum (cotton) assessed as mortality at 1.6 g a.i/10 a applied 11 days after germination as foliar spray
- Assay type: organism-based
- measurement-conditions: in vivo, other, 264 h
quantity-name: Activity

Sample records with Activity:
smiles-structure | Activity
CCCOc1cccc(Sc2nc(OC)cc(OC)n2)c1C(=O)O | Non-toxic
COc1cc(OC)nc(Oc2cccc(OC)c2C(=O)O)n1 | Toxic
COc1cc(OC)nc(Oc2cccc(N)c2C(=O)O)n1 | Non-toxic
CCOc1cccc(Oc2nc(OC)cc(OC)n2)c1C(=O)O | Non-toxic

Next compound, please.
If you can, please state the reported Activity value of CCc1cccc(Oc2nc(OC)cc(OC)n2)c1C(=O)O .
Toxic

* * *

- Test system: Glycine max
- assay-protocol: Pre-emergence phytotoxicity against Glycine max (soybean) assessed as mortality at 1.6 g a.i/10 a
- Assay type: organism-based
- measurement-conditions: in vivo, other
quantity-name: Activity

Worked cases, Activity given:
compound | Activity
COc1cc(OC)nc(Sc2cccc(F)c2C(=O)O)n1 | Non-toxic
COc1cc(OC)nc(Oc2cccc(C)c2C(=O)O)n1 | Toxic
COc1cc(OC)nc(Oc2cccc(OC)c2C(=O)O)n1 | Non-toxic
COc1cc(OC)nc(Sc2cccc(Cl)c2C(=O)O)n1 [PYRITHIOBAC] | Non-toxic
COc1cc(OC)nc(Oc2cccc([N+](=O)[O-])c2C(=O)O)n1 | Non-toxic

Attention now turns to another entry.
I am curious: what Activity value has been reported for CCc1cccc(Oc2nc(OC)cc(OC)n2)c1C(=O)O ?
Non-toxic

* * *

- Test system: Amaranthus retroflexus
- assay-protocol: Pre-emergence herbicidal activity against Amaranthus retroflexus assessed as growth inhibition at 25 g a.i/10 a
- Assay type: functional, organism-based
Active and inactive are the calls of the source. The rule behind the calls is not given here.
Can you answer with just one of these options? t for active, f for inactive

Answered examples (8):
smiles-structure | label-class
COc1cc(OC)nc(Oc2cccc(-c3ccccc3)c2C(=O)O)n1 | t
COc1cc(OC)nc(Oc2ccc(OC(C)C)cc2C(=O)O)n1 | f
CNc1ccc(Oc2nc(OC)cc(OC)n2)c(C(=O)O)c1 | t
COc1cc(OC)nc(Oc2cccc(Cl)c2C(=O)O)n1 | t
COc1cc(OC)nc(Oc2ccc(C(F)(F)F)cc2C(=O)O)n1 | f
CCCCOc1cccc(Oc2nc(OC)cc(OC)n2)c1C(=O)O | t
COc1cc(OC)nc(Oc2ccccc2C(=O)O)n1 | t
COc1cc(OC)nc(Oc2ccc(Cl)cc2C(=O)O)n1 | t

Check the results log: what was the call for CCCc1cccc(Oc2nc(OC)cc(OC)n2)c1C(=O)O ?
t

Identify the outcome logged in this assay for the molecule shown: COc1cc(OC)nc(Oc2cccc(OC(F)F)c2C(=O)O)n1
t

What was the test verdict on COc1cc(OC)nc(Oc2ccc(Br)cc2C(=O)O)n1 ?
f

Fill in: this test's call for COc1cc(OC)nc(Cc2cccc(Cl)c2C(=O)O)n1 is ___
t

Identify the outcome logged in this assay for the molecule shown: CCCOc1cccc(Oc2nc(OC)cc(OC)n2)c1C(=O)O
t

In this assay, the call recorded for CCc1cccc(Oc2nc(OC)cc(OC)n2)c1C(=O)O was what?
t

Entry CCCSc1cccc(Oc2nc(OC)cc(OC)n2)c1C(=O)O : call = ?
f

Record request — test call for COc1cc(OC)nc(Oc2cccc(C)c2C(=O)O)n1
t

Please share the test call associated with COc1cc(OC)nc(Oc2cccc(-n3cccc3)c2C(=O)O)n1 .
t
